Items are presented alongside their recorded inhibition at 100 µM.
- testedTarget: Caspase-8 (Homo sapiens)
- Construct: mixing the compounds with the respective active caspases; purchased BioVision K158-100
- Sequence (Q14790 217-374 limits assumed): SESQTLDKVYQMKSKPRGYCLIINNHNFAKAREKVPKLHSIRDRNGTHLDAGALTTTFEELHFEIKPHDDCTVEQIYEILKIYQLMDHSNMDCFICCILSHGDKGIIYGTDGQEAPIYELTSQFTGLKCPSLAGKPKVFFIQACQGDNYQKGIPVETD
- Sequence (Q14790 385-479 limits assumed): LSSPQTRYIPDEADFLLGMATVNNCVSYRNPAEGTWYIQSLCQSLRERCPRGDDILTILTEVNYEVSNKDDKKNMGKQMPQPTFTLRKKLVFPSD
- assayName: Caspase-8 inhibitor screening assay (BioVision kit, IETD-AFC)
- Assay type: biochemical
- measurementContext: 100 uM; read-out: % Inhibition at 100 uM Casp8
Provide only the numeric value, understood in %.

| compound | recordedMeasurement |
| --- | --- |
| CC(C)[C@H](NC(=O)OCc1ccccc1)C(=O)N[C@H](/C=C/S(C)(=O)=O)CC(=O)O | 23 |
| CC(C)[C@H](NC(=O)[C@@H](NC(=O)[C@H](CC(=O)O)NC(=O)OCc1ccccc1)c1ccccc1)C(=O)N[C@H](/C=C/S(C)(=O)=O)CCC(=O)O | 10 |
| CC(C)(C)[C@H](NC(=O)c1ccc2ccccc2n1)C(=O)N1CC[C@@H]1C(=O)N[C@H](/C=C/S(C)(=O)=O)CC(=O)O | 23 |

For CC(C)(C)[C@H](NC(=O)[C@H](CC(=O)O)NC(=O)OCc1ccccc1)C(=O)N1CCCC1C(=O)N[C@H](/C=C/S(C)(=O)=O)CC(=O)O (stereo in doubt) the compound record lists inhibition at 100 µM as 99

For "CC(C)[C@H](NC(=O)[C@@H](N)Cc1ccc(O)cc1)C(=O)N[C@@H](C)C(=O)N[C@H](/C=C/S(C)(=O)=O)CC(=O)O" the compound record lists inhibition at 100 µM as 30

For "CC(C)(C)[C@@H](NC(=O)[C@H](CC(=O)O)NC(=O)OCc1ccccc1)C(=O)N1CC[C@@H]1C(=O)N[C@H](/C=C/S(C)(=O)=O)CC(=O)O" the compound record lists inhibition at 100 µM as 98

For "CS(=O)(=O)/C=C/[C@H](CC(=O)O)NC(=O)[C@H]1CCCN1C(=O)[C@@H](NC(=O)[C@H](CC(=O)O)NC(=O)OCc1ccccc1)c1ccccc1" the compound record lists inhibition at 100 µM as 79

For "CC(C)(C)OC(=O)CC[C@H](NC(=O)OC(C)(C)C)C(=O)N[C@H](/C=C/S(C)(=O)=O)CC(=O)OC(C)(C)C" the compound record lists inhibition at 100 µM as 4

For "CS(=O)(=O)/C=C/[C@H](CC(=O)O)NC(=O)[C@H]1CCC(=O)N1" the compound record lists inhibition at 100 µM as 0

For "CC(C)[C@H](NC(=O)OCc1ccccc1)C(=O)N[C@H](/C=C(\Cl)S(C)(=O)=O)CC(=O)O" the compound record lists inhibition at 100 µM as 49

###

Items are presented alongside their recorded inhibition at 100 µM.
- testedTarget: Caspase-8 (Homo sapiens)
- Construct: mixing the compounds with the respective active caspases; purchased BioVision K158-100
- assayName: Caspase-8 inhibitor screening assay (BioVision kit, IETD-AFC)
- Assay type: biochemical
- measurementContext: 100 uM; read-out: % Inhibition at 100 uM Casp8
Provide only the numeric value, understood in %.

Some solved cases for reference:
| molecule | valueUnits | inhibition at 100 µM |
| --- | --- | --- |
| CC(C)(C)[C@H](NC(=O)c1ccc(N)c(Cl)c1)C(=O)N1CCCC1C(=O)N[C@H](/C=C/S(C)(=O)=O)CC(=O)O (stereo in doubt) [Compound 14] | % | 95 |
| CC(C)[C@H](NC(=O)[C@H](Cc1cn(C)c2ccccc12)NC(=O)[C@H](CC(=O)O)NC(=O)OCc1ccccc1)C(=O)N[C@H](/C=C/S(C)(=O)=O)CC(=O)O [Compound 36] | % | 33 |
| CS(=O)(=O)/C=C/[C@H](CC(=O)O)NC(=O)[C@H](CCC(=O)O)NC(=O)c1ccc2ccccc2n1 [Compound 18] | % | 0 |
| CS(=O)(=O)/C=C/[C@H](CC(=O)O)NC(=O)C1CCCN1C(=O)[C@@H](NC(=O)[C@H](CC(=O)O)NC(=O)OCc1ccccc1)C1CC1 (stereo in doubt) [Compound 28] | % | 80 |

Now examine the next entry.
For CC(C)[C@H](NC(=O)[C@H](CCC(=O)O)NC(=O)[C@H](Cc1c[nH]c2ccccc12)NC(=O)OCc1ccccc1)C(=O)N[C@H](/C=C/S(C)(=O)=O)CC(=O)O [Compound 40, Z-Trp-Glu-Val-Asp-methyl vinyl sulfone] the molecule record lists inhibition at 100 µM as 96
